Numbers sourced from ChEMBL document CHEMBL1140750.

- Assay summary: Inhibition of metallo-beta-lactamase IMP1
pIC50: −log10 of the molar value.
Assay endpoint: pIC50

{"Compound": "O=C(O)CCS [MERCAPTOPROPIONIC ACID]", "Assay endpoint": "pIC50", "Result value": 3.77}

---

- Assay summary: Inhibition of Bacillus cereus metallo-beta-lactamase BcII by dynamic combinatorial mass spectrometry
Assay endpoint: log10 Ki (log10 of the value in µM)

{"Compound": "CC(=O)Nc1ccc(C(=O)N[C@H](CS)C(=O)O)cc1", "log10 Ki": 1.13}
{"Compound": "O=C(Cc1ccccc1)NC(CS)C(=O)O (single isomer, unassigned; 9c)", "log10 Ki": 2.19}
{"Compound": "O=C(Cc1ccccc1)NC(CS)C(=O)O (single isomer, unassigned; 9d)", "log10 Ki": 1.72}
{"Compound": "CC(C)(C)c1ccc(C(=O)N[C@H](CS)C(=O)O)cc1", "log10 Ki": 0.92}
{"Compound": "O=C(O)C(S)C(S)C(=O)O (centres undefined)", "log10 Ki": 2.10}
{"Compound": "O=C(CCc1ccccc1)NC(CS)C(=O)O (single isomer, unassigned; 9f)", "log10 Ki": 1.86}
{"Compound": "O=C(CCc1ccccc1)NC(CS)C(=O)O (single isomer, unassigned; 9e)", "log10 Ki": 1.64}
{"Compound": "O=C(NC(CS)C(=O)O)c1ccccc1 (single isomer, unassigned; 9b)", "log10 Ki": -0.13}
{"Compound": "O=C(NC(CS)C(=O)O)c1ccccc1 (single isomer, unassigned; 9a)", "log10 Ki": 1.45}
